Tested on: BDF1 mice, Adenocarcinoma 755 s.c., tumor weight T/C
ASSAY_DETAILS: NCI In Vivo Anticancer Drug Screen. Data for tumor model Adenocarcinoma 755 (subcutaneous) in B6D2F1 (BDF1) mice
TEST_SETTINGS: endpoint: mean tumor weight; dose: 4.0 mg/kg/injection; schedule: Q01DX011 (ip); vehicle: carboxymethylcellulose (CMC); higher = larger tumour
QUANTITY_MEASURED: T/C

Some entries whose results are on file:
>  <SMI>
CCCCn1cnc2c(SSc3ncnc4c3ncn4CCCC)ncnc21

>  <T/C>
77 % of control

$$$$
>  <SMI>
N#CCSc1ncnc2nc[nH]c12

>  <T/C>
6 % of control

$$$$
>  <SMI>
CCCCNC(=O)c1n[se]nc1N

>  <T/C>
87 % of control

$$$$

Complete the entry with T/C for CN(C)[C@@H]1C(=O)C(C(=O)NCNc2nc(=S)c3[nH]cnc3[nH]2)=C(O)[C@@]2(O)C(=O)C3=C(O)c4c(O)cccc4[C@@](C)(O)[C@H]3C[C@@H]12 52 % of control

----------
Below, each entry is listed with its recorded T/C.
Test system: BDF1 mice, Adenocarcinoma 755 s.c., tumor weight T/C
ASSAY_DETAILS: NCI In Vivo Anticancer Drug Screen. Data for tumor model Adenocarcinoma 755 (subcutaneous) in B6D2F1 (BDF1) mice
TEST_SETTINGS: endpoint: mean tumor weight; dose: 3.12 mg/kg/injection; schedule: Q01DX011 (ip); vehicle: methylcellulose (MC); higher = larger tumour

// below: answered compounds
>  <COMPOUND>
CCCn1cnc2c(SCc3ccccc3Cl)nc(N)nc21

>  <ASSAY_TARGET>
BDF1 mice, Adenocarcinoma 755 s.c., tumor weight T/C

>  <RESULT>
62 % of control

$$$$
>  <COMPOUND>
CCCNc1ncnc2c1cnn2C1CCCCO1 (centres undefined)

>  <ASSAY_TARGET>
BDF1 mice, Adenocarcinoma 755 s.c., tumor weight T/C

>  <RESULT>
67 % of control

$$$$
>  <COMPOUND>
CCCCn1cnc2c(SCc3ccncc3)nc(N)nc21

>  <ASSAY_TARGET>
BDF1 mice, Adenocarcinoma 755 s.c., tumor weight T/C

>  <RESULT>
35 % of control

$$$$

Let us examine a further case.
Return reported T/C. Input compound: CCCCn1cnc2c(SC(C)C)nc(N)nc21 57 % of control

----------
System: BDF1 mice, Adenocarcinoma 755 s.c., tumor weight T/C
ASSAY_DETAILS: NCI In Vivo Anticancer Drug Screen. Data for tumor model Adenocarcinoma 755 (subcutaneous) in B6D2F1 (BDF1) mice
TEST_SETTINGS: endpoint: mean tumor weight; dose: 30.0 mg/kg/injection; schedule: Q01DX011 (ip); vehicle: saline; higher = larger tumour
QUANTITY_MEASURED: T/C

// below: answered molecules
>  <MOLECULE>
OCC1OC(n2cnc3c(I)ncnc32)C(O)C1O (stereo not given)

>  <ASSAY_TARGET>
BDF1 mice, Adenocarcinoma 755 s.c., tumor weight T/C

>  <T/C>
73 % of control

$$$$
>  <MOLECULE>
c1nc([N+]23CCC(CC2)CC3)c2[nH]cnc2n1

>  <ASSAY_TARGET>
BDF1 mice, Adenocarcinoma 755 s.c., tumor weight T/C

>  <T/C>
50 % of control

$$$$
>  <MOLECULE>
O=C1N(Cl)C(=O)C(c2ccc(Cl)cc2)(c2ccc(Cl)cc2)N1Cl

>  <ASSAY_TARGET>
BDF1 mice, Adenocarcinoma 755 s.c., tumor weight T/C

>  <T/C>
52 % of control

$$$$
>  <MOLECULE>
CC(=O)OCC1OC(n2cnc3c(=O)[nH]c(=O)[nH]c32)C(OC(C)=O)C1OC(C)=O (stereo not given)

>  <ASSAY_TARGET>
BDF1 mice, Adenocarcinoma 755 s.c., tumor weight T/C

>  <T/C>
101 % of control

$$$$

Continue with the next molecule.
Determine its reported T/C: Cn1cnc2c(ncn2C2CC(O)C(CO)O2)c1=N (stereo not given) 83 % of control
